System: BT-549 breast
Experiment: NCI tumour cell line growth inhibition, 48 h
Recorded TGI, one value per entry.

| MOLECULE | SYSTEM NAME | TGI |
| --- | --- | --- |
| COc1ccc(-c2c(-c3ccccc3)c(C)nc3[nH]c(=S)[nH]c(=S)c23)cc1OC | BT-549 breast | > 100 µM |
| CC(C)OC(=O)C1(C(C)C)CCc2ccc(C(=O)CCC(=O)O)cc21 (stereo not drawn) | BT-549 breast | > 100 µM |
| C=C1C(=O)O[C@H]2[C@H]1CC/C(COC(=O)CCCCCCCC(=O)OC/C1=C/CC[C@@]3(C)O[C@H]3[C@H]3OC(=O)C(=C)[C@@H]3CC1)=C\CC[C@@]1(C)O[C@@H]21 | BT-549 breast | 3.45 µM |
| N#Cc1c(N)nc(SCc2ccccc2)c(C#N)c1-c1ccc(O)cc1 | BT-549 breast | 24.7 µM |
| COC(=O)[C@]12C3=C(O)C(=O)C[C@H]1OC[C@H]2C=CC3 | BT-549 breast | > 100 µM |
| Cn1c2c(c3ccccc3c1=O)C(=O)c1ccccc1-2 | BT-549 breast | > 100 µM |
| COc1ccc(/C=C2\CCC(C)c3c2nc(N)c(C#N)c3-c2ccc(OC)c(OC)c2)cc1OC (stereo not drawn) | BT-549 breast | > 100 µM |
| COc1c2cc([N+](=O)[O-])cc1CN(C(=O)C(F)(F)F)CCOCCN(C(=O)C(F)(F)F)C2 | BT-549 breast | > 100 µM |
| CC(=O)N1C(CCc2ccccc2)CC(C)(C=O)C1Cc1ccc(O[Si](C(C)C)(C(C)C)C(C)C)cc1 (stereo not drawn) | BT-549 breast | 29.7 µM |
| O=C(Cn1c2c(c3ccccc31)CCCC2)N1CCCCC1 | BT-549 breast | > 100 µM |
| COc1c(B(O)O)cccc1-c1nc2ccc3[nH]ncc3c2c2c1CCCC2 | BT-549 breast | 2.56 µM |
| CCOC(=O)c1csc(C(CSCc2ccc(OC)cc2)N2C(=O)c3ccccc3C2=O)n1 (stereo not drawn) | BT-549 breast | > 100 µM |
| COC(=O)c1sc2c(c1C(=O)OC)C(=NC(C)(C)C)SC2=NC(C)(C)C | BT-549 breast | 35.4 µM |
| Cc1ccc(NC(=S)C#N)c(C)c1 | BT-549 breast | > 100 µM |
| C=CCc1oc(C)nc1CCCC | BT-549 breast | > 100 µM |
| C1=Nc2ccc(cc2)-c2ccc(cc2)N=Cc2ccc(cc2)OCc2cccc(n2)COc2ccc1cc2 | BT-549 breast | > 100 µM |
| O=C(Sc1n[nH]c(=O)[nH]c1=O)c1cccc2nc3ccccc3nc12 | BT-549 breast | > 100 µM |
| CCC[n+]1cc2cc3c(cc2c2c1-c1cc4c(cc1C2)OCO4)OCO3 (tested in a mixture with another compound) | BT-549 breast | 1.82 µM |
| COc1cc2c(NC3CCN(C(C)C)CC3)nc(C3CCCCC3)nc2cc1OCCCN1CCCC1 | BT-549 breast | 15.3 µM |
| COc1cccc(N2CCN(c3ncnc4cc[nH]c34)CC2)c1 | BT-549 breast | 26.8 µM |
| Cc1ccc2c(c1)C=CC1(O2)N(c2ccccc2)C(=S)OC1(C)C (stereo not drawn) | BT-549 breast | > 100 µM |
| C[C@@H](CS[As](C)C)C(=O)N1CCC[C@H]1C(=O)O | BT-549 breast | 2.31 µM |
| CC(NP(=O)(c1ccccc1)c1ccccc1)c1ccccc1 (stereo not drawn) | BT-549 breast | > 100 µM |
| COc1ccc(C[C@@H](C(=O)O[C@H](C)[C@H](NC(=O)[C@@H](CC(C)C)N(C)C(=O)C2CCCN2C(=O)[C@H](C)O)C(=O)N2CCCCNC(=O)[C@@H](C)C(=O)[C@H](C(C)C)OC(=O)C[C@H](O)[C@H]2CC(C)C)N(C)C(C)=O)cc1 (stereo partly drawn) | BT-549 breast | > 50 µM |
| Cc1ccc2c(n1)NC(=O)C(Cc1ccccc1)(N=[N+]=[N-])C2=O (stereo not drawn) | BT-549 breast | > 100 µM |
| C[C@H](c1ccccc1)n1c(N)c(-c2nc3ccccc3s2)c2ccc([N+](=O)[O-])cc2c1=O | BT-549 breast | > 95.9 µM |
| O=C(OCc1ccccc1)c1ccc(NCc2cc(O)ccc2O)cc1 | BT-549 breast | 2.19 µM |
| O=CC(O)C(O)C1OC(=O)c2cc(O)c(O)c(O)c2C2=C(O)C(O)=C3OC(=O)c4c(c(O)c(O)c5c4C3C2C(=O)O5)-c2c(cc(O)c(O)c2O)C(=O)OCC1O (stereo not drawn) | BT-549 breast | > 100 µM |
| COc1ccc(C(OCC2OC3(COC(c4ccccc4)(c4ccc(OC)cc4)c4ccc(OC)cc4)C(Oc4nc(=O)ccn43)C2O)(c2ccccc2)c2ccc(OC)cc2)cc1 (stereo not drawn) | BT-549 breast | > 100 µM |
| [Cl][Hg][c]1ccc2ccccc2c1 | BT-549 breast | 2.82 µM |
| CC(=O)c1ccc2c3c1[C@H]1O[C@H]1c1cccc(c1-3)[C@@H]1O[C@H]21 | BT-549 breast | 4.53 µM |
| COc1cc(C2c3cc4c(cc3[C@@H](Nc3ccc([N+](=O)[O-])cc3)C3COC(=O)[C@H]23)OCO4)cc(OC)c1O (stereo partly drawn) | BT-549 breast | 6.39 µM |
| COc1ccc(/C=C2\COc3ccc(O)c(O)c3C2=O)cc1OC | BT-549 breast | 3.25 µM |
| CC(=O)NC1CC(C(C)(C)NC(C)=O)CC=C1C (stereo not drawn) | BT-549 breast | > 100 µM |
| Cc1ccc(C)n2c1nc1cc3ccccc3cc12 | BT-549 breast | > 100 µM |
| C[C@H](CCC(=O)NCCS(=O)(=O)O)[C@H]1CC[C@H]2[C@@H]3[C@H](O)C[C@@H]4C[C@H](O)CC[C@]4(C)[C@H]3CC[C@]12C | BT-549 breast | > 100 µM |
| O=C(NNc1ccccc1)c1ccc(Cl)c(Cl)c1 | BT-549 breast | > 66.8 µM |
| O=C1N/C(=N\N=C\c2ccccc2)C2(CCCCC2)O1 | BT-549 breast | > 100 µM |
